- MEASUREMENT_NOTES: AUC in rat at 10 mg/kg, po administered as single dose
- Assay type: ADME, organism-based
- CONDITION: in vivo

- COMPOUND: "Cc1nnc(C(C)C)n1[C@@H]1C[C@H]2CC[C@@H](C1)N2CC[C@H](NC(=O)C1CCC(F)(F)CC1)c1ccccc1"
  AUC (ng·h/mL): 12.4

* * *

selectivity ratio values, listed per item
- MEASUREMENT_NOTES: in vitro
- CONDITION: human, PBMC
- Description: Therapeutic index, ratio of CC50 for human PBMC to IC50 for CCR5-dependent HIV1 SF162 infected in human PBMC cells

- COMPOUND: "Cc1nnc(C(C)C)n1[C@@H]1C[C@H]2CC[C@@H](C1)N2CC[C@H](NC(=O)C1CCC(F)(F)CC1)c1cccs1"
  VALUE_PREFIX: "="
  selectivity ratio: 92000
- COMPOUND: "Cc1nnc(C(C)C)n1[C@@H]1C[C@H]2CC[C@@H](C1)N2CC[C@H](NC(=O)C1CCCC1)c1cccs1"
  VALUE_PREFIX: "="
  selectivity ratio: 6100
- COMPOUND: "Cc1nnc(C(C)C)n1[C@@H]1C[C@H]2CC[C@@H](C1)N2CC[C@H](NC(=O)C1CCCCC1)c1cccs1"
  VALUE_PREFIX: "="
  selectivity ratio: 509
- COMPOUND: "Cc1nnc(C(C)C)n1[C@@H]1C[C@H]2CC[C@@H](C1)N2CC[C@H](NC(=O)C1CCC(F)(F)CC1)c1ccsc1"
  VALUE_PREFIX: "="
  selectivity ratio: 160000
- COMPOUND: "Cc1ccc([C@H](CCN2[C@@H]3CC[C@H]2C[C@H](n2c(C)nnc2C(C)C)C3)NC(=O)C2CCC(F)(F)CC2)s1"
  VALUE_PREFIX: ">"
  selectivity ratio: 29000

* * *

Measured bioavailability values are reported for all entries that follow.
- MEASUREMENT_NOTES: Oral bioavailability in dog at 15 mg/kg by LC-MS/MS analysis
- Format: ADME, organism-based, Canis lupus familiaris
- CONDITION: in vivo

- COMPOUND: "Cc1nnc(C(C)C)n1[C@@H]1C[C@H]2CC[C@@H](C1)N2CC[C@H](NC(=O)C1CCC(F)(F)CC1)c1ccsc1"
  bioavailability: "10%"
- COMPOUND: "Cc1nnc(C(C)C)n1[C@@H]1C[C@H]2CC[C@@H](C1)N2CC[C@H](NC(=O)C1CCCC1)c1cccs1"
  bioavailability: "38.1%"

* * *

- MEASUREMENT_NOTES: in vitro
- CONDITION: human, PBMC
- Description: Therapeutic index, ratio of CC50 for human PBMC to IC50 for CCR5-dependent HIV1 KM018 infected in human PBMC
Here, each record is paired with measured selectivity ratio data.
PROPERTY_LABEL: selectivity ratio

- COMPOUND: "Cc1nnc(C(C)C)n1[C@@H]1C[C@H]2CC[C@@H](C1)N2CC[C@H](NC(=O)C1CCCCC1)c1cccs1"
  VALUE_PREFIX: "="
  REPORTED: 529
- COMPOUND: "Cc1nnc(C(C)C)n1[C@@H]1C[C@H]2CC[C@@H](C1)N2CC[C@H](NC(=O)C1CCC(F)(F)CC1)c1ccsc1"
  VALUE_PREFIX: "="
  REPORTED: 290000
- COMPOUND: "Cc1ccc([C@H](CCN2[C@@H]3CC[C@H]2C[C@H](n2c(C)nnc2C(C)C)C3)NC(=O)C2CCC(F)(F)CC2)s1"
  VALUE_PREFIX: ">"
  REPORTED: 1600
- COMPOUND: "Cc1nnc(C(C)C)n1[C@@H]1C[C@H]2CC[C@@H](C1)N2CC[C@H](NC(=O)C1CCCC1)c1cccs1"
  VALUE_PREFIX: "="
  REPORTED: 4000
- COMPOUND: "Cc1nnc(C(C)C)n1[C@@H]1C[C@H]2CC[C@@H](C1)N2CC[C@H](NC(=O)C1CCC(F)(F)CC1)c1cccs1"
  VALUE_PREFIX: "="
  REPORTED: 56000

* * *

- MEASUREMENT_NOTES: MRT in Sprague-Dawley rat at 10 mg/kg, iv by LC-MS/MS analysis
- Type: ADME, organism-based
- CONDITION: in vivo
# MRT values compiled below

- COMPOUND: "Cc1nnc(C(C)C)n1[C@@H]1C[C@H]2CC[C@@H](C1)N2CC[C@H](NC(=O)C1CCC(F)(F)CC1)c1ccsc1"
  MRT: "48 min"
- COMPOUND: "Cc1nnc(C(C)C)n1[C@@H]1C[C@H]2CC[C@@H](C1)N2CC[C@H](NC(=O)C1CCC(F)(F)CC1)c1cccs1"
  MRT: "42 min"
- COMPOUND: "Cc1nnc(C(C)C)n1[C@@H]1C[C@H]2CC[C@@H](C1)N2CC[C@H](NC(=O)C1CCCCC1)c1cccs1"
  MRT: "48 min"
- COMPOUND: "Cc1nnc(C(C)C)n1[C@@H]1C[C@H]2CC[C@@H](C1)N2CC[C@H](NC(=O)C1CCCC1)c1cccs1"
  MRT: "54.6 min"
- COMPOUND: "Cc1ccc([C@H](CCN2[C@@H]3CC[C@H]2C[C@H](n2c(C)nnc2C(C)C)C3)NC(=O)C2CCC(F)(F)CC2)s1"
  MRT: "138 min"

* * *

- STUDY_SYSTEM: C-C chemokine receptor type 5 (Homo sapiens, UniProt P51681)
- Sequence (P51681 whole entry): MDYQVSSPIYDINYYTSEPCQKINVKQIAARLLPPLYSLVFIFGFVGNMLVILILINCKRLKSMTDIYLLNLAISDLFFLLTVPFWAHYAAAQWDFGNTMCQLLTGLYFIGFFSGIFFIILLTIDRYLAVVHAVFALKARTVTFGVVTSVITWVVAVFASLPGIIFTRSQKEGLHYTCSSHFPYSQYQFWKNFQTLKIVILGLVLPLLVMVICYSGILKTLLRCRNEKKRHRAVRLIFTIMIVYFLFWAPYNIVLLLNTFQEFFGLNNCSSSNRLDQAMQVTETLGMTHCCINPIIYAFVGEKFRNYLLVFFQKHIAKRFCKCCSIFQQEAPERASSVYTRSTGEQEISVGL
- MEASUREMENT_NOTES: Antagonist activity at CCR5 (unknown origin) expressed in HEK293 cells co-expressing Galpha16 assessed as inhibition of RANTES-induced calcium flux preincubated for 10 mins followed by RANTES addition by fluo-4AM-based fluorescence assay
pIC50: −log10 of the molar value.

- COMPOUND: "Cc1nnc(C(C)C)n1[C@@H]1C[C@H]2CC[C@@H](C1)N2CC[C@H](NC(=O)C1CCC(F)(F)CC1)c1cccs1"
  pIC50: 8.04
- COMPOUND: "Cc1nnc(C(C)C)n1[C@@H]1C[C@H]2CC[C@@H](C1)N2CC[C@H](NC(=O)C1CCC(F)(F)CC1)c1ccc(F)s1"
  pIC50: 7.80
- COMPOUND: "Cc1nnc(C2CC2)n1[C@@H]1C[C@H]2CC[C@@H](C1)N2CC[C@H](NC(=O)C1CCC(F)(F)CC1)c1ccsc1"
  pIC50: 8.59
- COMPOUND: "Cc1nnc(C(C)C)n1[C@@H]1C[C@H]2CC[C@@H](C1)N2CC[C@H](NC(=O)C1CCCC1)c1cccs1"
  pIC50: 8.51
- COMPOUND: "Cc1nnc(C(C)C)n1[C@@H]1C[C@H]2CC[C@@H](C1)N2CC[C@H](NC(=O)C1CCC(F)CC1)c1cccs1 (some centres undefined)"
  pIC50: 8.52
- COMPOUND: "Cc1nnc(C2CC2)n1[C@@H]1C[C@H]2CC[C@@H](C1)N2CC[C@H](NC(=O)C1CCC(F)(F)CC1)c1cccs1"
  pIC50: 8.54
- COMPOUND: "Cc1ccc([C@H](CCN2[C@@H]3CC[C@H]2C[C@H](n2c(C)nnc2C(C)C)C3)NC(=O)C2CCCC2)s1"
  pIC50: 8.59
- COMPOUND: "O=C(N[C@@H](CCN1[C@@H]2CC[C@H]1C[C@H](n1c(C3CC3)nnc1C(F)(F)F)C2)c1ccsc1)C1CCC(F)(F)CC1"
  pIC50: 8.54
- COMPOUND: "COc1ccc([C@H](CCN2[C@@H]3CC[C@H]2C[C@H](n2c(C)nnc2C(C)C)C3)NC(=O)C2CCC(F)(F)CC2)s1"
  pIC50: 8.17
- COMPOUND: "Cc1ccc([C@H](CCN2[C@@H]3CC[C@H]2C[C@H](n2c(C)nnc2C(C)C)C3)NC(=O)c2ccccc2)s1"
  pIC50: 7.29
- COMPOUND: "CC(C)c1nnc(C(F)(F)F)n1[C@@H]1C[C@H]2CC[C@@H](C1)N2CC[C@H](NC(=O)C1CCC(F)(F)CC1)c1cccs1"
  pIC50: 8.33
- COMPOUND: "CCc1nnc(C)n1[C@@H]1C[C@H]2CC[C@@H](C1)N2CC[C@H](NC(=O)C1CCC(F)(F)CC1)c1ccsc1"
  pIC50: 8.55
- COMPOUND: "Cc1ccc([C@H](CCN2[C@@H]3CC[C@H]2C[C@H](n2c(C(C)C)nnc2C(F)(F)F)C3)NC(=O)C2CCC(F)(F)CC2)s1"
  pIC50: 8.40
- COMPOUND: "Cc1nnc(C(C)C)n1[C@@H]1C[C@H]2CC[C@@H](C1)N2CC[C@H](NC(=O)C1CCC(F)(F)CC1)c1cscn1"
  pIC50: 7.57

* * *

- MEASUREMENT_NOTES: Cmax in Sprague-Dawley rat at 10 mg/kg, po by LC-MS/MS analysis
- Assay type: ADME, organism-based
- Parameters: dose 10 mg/kg, route oral
- CONDITION: in vivo

- COMPOUND: "Cc1nnc(C(C)C)n1[C@@H]1C[C@H]2CC[C@@H](C1)N2CC[C@H](NC(=O)C1CCC(F)(F)CC1)c1ccccc1"
  Cmax: "5.5 ng/mL"
